# test.target: Cbl-b (truncated variant, UniProt number Q13191) (Homo sapiens, UniProt Q13191)
# Construct: made in house
# Sequence (Q13191 36-427): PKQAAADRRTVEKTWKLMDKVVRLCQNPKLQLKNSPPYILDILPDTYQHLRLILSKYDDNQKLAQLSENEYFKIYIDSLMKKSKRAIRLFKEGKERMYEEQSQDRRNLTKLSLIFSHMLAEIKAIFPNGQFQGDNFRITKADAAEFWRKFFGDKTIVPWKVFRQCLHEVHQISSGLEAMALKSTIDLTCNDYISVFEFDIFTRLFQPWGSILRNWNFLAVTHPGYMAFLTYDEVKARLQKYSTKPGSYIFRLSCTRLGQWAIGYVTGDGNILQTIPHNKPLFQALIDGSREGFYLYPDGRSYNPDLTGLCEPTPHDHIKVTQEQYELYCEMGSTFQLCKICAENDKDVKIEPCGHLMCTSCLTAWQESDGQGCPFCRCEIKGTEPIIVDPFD
# test.description: Cbl-b activity assay (TR-FRET, interaction of Cbl-b with UbcH5B-Ub)
# Assay type: biochemical
# details: high conditions: 100 mM NaCl, 60 nM Src kinase; 12 nM Cbl-b; read-out: Cbl-b activity IC50
IC50 by entry:

{"compound": "CNC(=O)c1cccc(-c2cn(-c3cccc([C@H](C)Sc4nncn4C)c3)nn2)c1", "IC50": "≥ 5000 nM"}
{"compound": "C[C@H](Cc1nncn1C)c1cccc(-c2n[nH]c3cc(C4CCC4)cnc23)c1", "IC50": "1000 to 5000 nM"}
{"compound": "CN1CCC2(CC1)CN(C(=O)Nc1cccc(C3(Cc4nncn4C)COC3)c1)c1ncccc12", "IC50": "100 to 1000 nM"}
{"compound": "COc1cccc(-c2cc(-c3cccc(C(C)Sc4nncn4C)c3)[nH]n2)c1 (centres unmarked)", "IC50": "1000 to 5000 nM"}
{"compound": "Cn1cnnc1CC1(c2cccc(NC(=O)N3CC4(CCNCC4)c4cccnc43)c2)COC1", "IC50": "< 100 nM"}
{"compound": "C[C@H](Sc1nncn1C)c1cccc(-n2cc(-c3ccc(Cl)cc3)nn2)c1", "IC50": "1000 to 5000 nM"}
{"compound": "CNC(=O)c1ccc(-c2cnn(-c3cccc([C@H](C)Sc4nncn4C)c3)n2)cc1", "IC50": "1000 to 5000 nM"}
{"compound": "C[C@H](Cc1nncn1C)c1cccc(-c2n[nH]c3c(N4CC[C@H](O)C4)cc(C(F)(F)F)nc23)c1", "IC50": "100 to 1000 nM"}
